# measured on: bovine chymotrypsin (Bos taurus)
metric: IC50 (µM)

INSERT INTO results (compound, numeric_result) VALUES
  ('CC(=O)N[C@@H](CC(C)C)C(=O)N[C@@H](CC(C)C)C(=O)N[C@H](C=O)CCCNC(=N)N [Leupeptin, reference compound]', 2400);
